tested on: Key Broadleaf Weed and Crop Species; assay: Post-Emergent Test II: postemergent herbicidal activity, visual rating after 14 d (Table 7); type: in vivo; settings: post-emergence, 336 h, velvetleaf (Abutilon theophrasti), 70 g ai/ha, read-out: Visual Growth Reduction (%) 14 Days After Application ABUTH

{"SAMPLE SMILES": "C=Cc1c(C(=O)OC)nc(-c2cc3c(cc2F)OC(F)(F)O3)c(F)c1N", "pest or weed control at 70 g/ha": "0 to 29%"}
{"SAMPLE SMILES": "COC(=O)c1nc(-c2cc3c(cc2OC)OC(F)(F)O3)cc(N)c1Cl", "pest or weed control at 70 g/ha": "0 to 29%"}
{"SAMPLE SMILES": "Nc1c(F)c(-c2cc3c(cc2F)OC(F)(F)O3)nc(C(=O)O)c1Cl", "pest or weed control at 70 g/ha": "75 to 84%"}
{"SAMPLE SMILES": "COC(=O)c1nc(-c2cc3c(cc2F)OC(F)(F)O3)nc(N)c1OC", "pest or weed control at 70 g/ha": "0 to 29%"}
{"SAMPLE SMILES": "Nc1c(F)c(-c2ccc(Br)c3c2OC(F)(F)O3)nc(C(=O)O)c1Cl", "pest or weed control at 70 g/ha": "75 to 84%"}
{"SAMPLE SMILES": "COC(=O)c1nc(-c2cc3c(cc2F)OC(F)(F)O3)c(F)c(N)c1OC", "pest or weed control at 70 g/ha": "0 to 29%"}
